Assay System: UniProt P09917
Sequence (P09917 1-674): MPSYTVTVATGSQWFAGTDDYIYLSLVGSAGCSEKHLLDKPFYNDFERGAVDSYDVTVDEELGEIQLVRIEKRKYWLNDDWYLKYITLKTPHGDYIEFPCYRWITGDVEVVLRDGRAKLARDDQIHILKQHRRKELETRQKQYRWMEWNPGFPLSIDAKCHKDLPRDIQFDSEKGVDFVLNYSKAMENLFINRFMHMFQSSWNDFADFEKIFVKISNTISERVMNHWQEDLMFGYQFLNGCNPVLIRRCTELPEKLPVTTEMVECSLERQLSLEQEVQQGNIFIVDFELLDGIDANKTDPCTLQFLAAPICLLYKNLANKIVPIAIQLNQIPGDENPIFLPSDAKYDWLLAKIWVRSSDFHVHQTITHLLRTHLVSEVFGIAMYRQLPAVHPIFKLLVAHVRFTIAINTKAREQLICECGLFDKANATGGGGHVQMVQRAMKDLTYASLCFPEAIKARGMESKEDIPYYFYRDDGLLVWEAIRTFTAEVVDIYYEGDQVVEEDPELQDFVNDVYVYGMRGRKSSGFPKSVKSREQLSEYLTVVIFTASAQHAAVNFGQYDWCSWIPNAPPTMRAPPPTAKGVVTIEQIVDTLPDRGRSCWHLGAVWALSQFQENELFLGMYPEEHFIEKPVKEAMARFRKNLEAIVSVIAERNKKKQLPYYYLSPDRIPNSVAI
Assay Text: UV ([…] nm) linoleic acid to HPOD assay, human recombinant 5-LOX
Property Label: IC50
# number then unit; no other words

IC50 lookup needed for O=C1CC(c2ccccc2)Oc2ccc(O)cc21 (stereo not shown) [6-HF, 6-Hydroxyflavanone] , thanks.
36 µM

* * *

Assay System: UniProt P35354
Sequence (P35354 18-604): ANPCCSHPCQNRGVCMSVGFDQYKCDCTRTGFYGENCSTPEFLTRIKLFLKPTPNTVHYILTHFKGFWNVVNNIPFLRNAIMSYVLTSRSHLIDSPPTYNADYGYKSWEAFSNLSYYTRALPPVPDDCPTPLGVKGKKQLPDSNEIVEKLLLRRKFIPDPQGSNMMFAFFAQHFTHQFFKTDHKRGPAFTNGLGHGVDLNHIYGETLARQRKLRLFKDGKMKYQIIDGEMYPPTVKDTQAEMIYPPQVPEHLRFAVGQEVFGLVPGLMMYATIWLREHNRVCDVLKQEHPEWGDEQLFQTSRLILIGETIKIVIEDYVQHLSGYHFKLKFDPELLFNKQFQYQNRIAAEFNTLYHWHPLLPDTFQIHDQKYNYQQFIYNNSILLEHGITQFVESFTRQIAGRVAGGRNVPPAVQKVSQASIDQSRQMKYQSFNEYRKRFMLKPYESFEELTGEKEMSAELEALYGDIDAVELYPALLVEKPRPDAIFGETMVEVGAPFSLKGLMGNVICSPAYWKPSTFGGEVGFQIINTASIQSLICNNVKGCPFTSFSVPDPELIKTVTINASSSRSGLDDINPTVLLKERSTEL
Assay Text: colorimetric COX inhibitor screening assay (Cayman […]), human recombinant COX-2
Property Label: pIC50
Recall that pIC50 is obtained by taking minus log10 of the concentration measured in molar.

I have this compound here, O=C1CC(c2ccccc2)Oc2ccc(O)cc21 (stereo not shown) [6-HF, 6-Hydroxyflavanone] , and I need its recorded pIC50.
4.66
